hCD47 binding (B/E) values, listed per item
Study system: human CD47 (hCD47) (human, UniProt Q08722 19-139, limits assumed)
Sequence (Q08722 19-139 limits assumed): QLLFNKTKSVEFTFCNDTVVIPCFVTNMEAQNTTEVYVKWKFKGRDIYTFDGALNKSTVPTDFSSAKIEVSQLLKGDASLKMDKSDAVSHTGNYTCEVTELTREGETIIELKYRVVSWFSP
Assay protocol: hCD47 binding OD over expression OD
Assay readout: hCD47 binding (B/E)

- Binder: "4RP6-1-10A (designed binder, tested as bacterial supernatant; also called S-16; hSIRPα-mt13 (IgV domain)) hSIRPα IgV domain mutant: EEELQVIQPDKSVSVAAGESAILHCTVTSLLPVGPIQWFRGAGPARELIYNQKDFLFPRVTTVSESTKRENRDFSISISNITPADAGTYYCVKFRKGSPDTEFKSGAGTELSVRAKPS"
  Assay readout: "hCD47 binding (B/E)"
  Endpoint value: 2.89
- Binder: "2R-1-10B (designed binder, tested as bacterial supernatant; also called hSIRPα-mt6 (IgV domain)) hSIRPα IgV domain mutant: EEELQVIQPDKSVSVAAGESAILHCTVTSLIPVGPIQWFRGAGPARELIYNQKNLIFPRVTTVSESGKRENMDFSISISNITPADAGTYYCVKFRKGSPDTEFKSGAGTELSVRAKPS"
  Assay readout: "hCD47 binding (B/E)"
  Endpoint value: 0.46
- Binder: "4RP13-5-6G (designed binder, tested as bacterial supernatant; also called hSIRPα-mt15 (IgV domain)) hSIRPα IgV domain mutant: EEELQVIQPDKSVSVAAGESAILRCTVTSLTPVGPIQWFRGAGPARELIYNQKAKQFPRVTTVSESTKRENMIFSISISNITPADAGTYYCVKFRKGSPDTEFKSGAGTELSVRAKPS"
  Assay readout: "hCD47 binding (B/E)"
  Endpoint value: 1.01
- Binder: "4RP13-3-7B (designed binder, tested as bacterial supernatant; also called S-28; hSIRPα-mt10 (IgV domain)) hSIRPα IgV domain mutant: EEELQVIQPDKSVSVAAGESAILTCTVTSLYPVGPIQWFRGAGPARELIYNQKRQTFPRVTTVSESTKRFNMDFSISISNITPADAGTYYCVKFRKGSPDTEFKSGAGTELSVRAKPS"
  Assay readout: "hCD47 binding (B/E)"
  Endpoint value: 1.25
- Binder: "2R-1-4B (designed binder, tested as bacterial supernatant; also called hSIRPα-mt14 (IgV domain)) hSIRPα IgV domain mutant: EEELQVIQPDKSVSVAAGESAILHCTVTSLAPVGPIQWFRGAGPARELIYNQKLDSFPRVTTVSESTKRESMDFSISISNITPADAGTYYCVKFRKGSPDTEFKSGAGTELSVRAKPS"
  Assay readout: "hCD47 binding (B/E)"
  Endpoint value: 0.77
- Binder: "2R-1-7B (designed binder, tested as bacterial supernatant; also called hSIRPα-mt7 (IgV domain)) hSIRPα IgV domain mutant: EEELQVIQPDKSVSVAAGESAILHCIVTSLIPVGPIQWFRGAGPARELIYNQKILTFPRVTTVSESTKRENYDFSISISNITPADAGTYYCVKFRKGSPDTEFKSGAGTELSVRAKPS"
  Assay readout: "hCD47 binding (B/E)"
  Endpoint value: 0.78
